- PROTOCOL_DETAILS: Determination of the threshold concentration (taste testers, Schutz and Pilgrim method)
- CONDITION_DESCRIPTION: concentration 1:50000
MEASUREMENT_KIND: Average Value of Evaluation Points
One number for each entry.

COMPOUND | Average Value of Evaluation Points
O=C1NS(=O)(=O)c2ccccc21 [V, Saccharin, reference compound] | 1.2

Please report Average Value of Evaluation Points for every entry that follows.
1. Cc1sc2c(c1C)C(=O)NS2(=O)=O.[Na]
2. Cc1sc2c(c1C)C(=O)NS2(=O)=O

2.0
2.2

Fill in Average Value of Evaluation Points for each of the 2 compounds listed.
1. O=C1NS(=O)(=O)c2ccccc21.[Na] [W, Saccharin sodium, reference compound]
2. Cc1cc2c(s1)S(=O)(=O)NC2=O

1. 1.2
2. 1.4

Query: Average Value of Evaluation Points; subject: `Cc1cc2c(s1)S(=O)(=O)NC2=O.[Ca]`
1.0
